system: KHYG-1 (IL-2 2.5 ng/mL); test: relative IC50 (inflection point of fitted viability curve, relative to fitted max inhibition); higher = less sensitive; settings: 72 h
# relative IC50 >= 1 µM gives y, anything below gives n

For this molecule, is measured relative IC50 1 µM or higher? CC(C)c1c(C(=O)Nc2ccccc2)c(-c2ccccc2)c(-c2ccc(F)cc2)n1CC[C@@H](O)C[C@@H](O)CC(=O)O
y

Would you say CC1(COc2ccc3c(c2)ncn3-c2ccc3cccc(N4CCC(N)CC4)c3n2)COC1 shows relative IC50 at minimum 1 µM?
y

Given Cc1cc2c(F)c(Oc3ncnn4cc(OC[C@@H](C)O)c(C)c34)ccc2[nH]1 , state whether its relative IC50 is at least 1 µM.
y

Identify whether the reported relative IC50 of the following molecule is 1 µM or greater: O=C(CCCCCCNC(=O)c1cnc(N(c2ccccc2)c2ccccc2)nc1)NO
y

Could you tell me if the measured relative IC50 of CN(Cc1cnc2nc(N)nc(N)c2n1)c1ccc(C(=O)N[C@@H](CCC(=O)O)C(=O)O)cc1 [Methotrexate] reaches 1 µM or more?
n

Check the entry COc1cc(OC)c(/C=C/S(=O)(=O)Cc2ccc(OC)c(NCC(=O)O)c2)c(OC)c1 : does relative IC50 equal or exceed 1 µM?
n

Please tell me: is the molecule CN1CCN(c2nc(C3=C(c4c[nH]c5ccccc45)C(=O)NC3=O)c3ccccc3n2)CC1 at or over 1 µM in terms of relative IC50?
y

###

test system: normal NK cells expanded with K562-aAPC; assay: percent inhibition of viability; higher = more inhibition; details: 72 h; IL-2 2.5 ng/mL; 100 nM
Metric: percent inhibition of viability (%)
Your answer is read as %, so omit the unit and give the number.

Input COc1cc([C@@H]2c3cc4c(cc3[C@@H](O[C@@H]3O[C@@H]5CO[C@@H](C)O[C@H]5[C@H](O)[C@H]3O)[C@H]3COC(=O)[C@H]23)OCO4)cc(OC)c1O [Etoposide] (max concentration tested 10000 nM) , output reported percent inhibition of viability.
-1.72

Assign percent inhibition of viability to the following record: O=C(O)CC[C@H]1CC[C@@](c2cc(F)ccc2F)(S(=O)(=O)c2ccc(Cl)cc2)CC1 [MK-0752] (max concentration tested 1000 nM)
10.8

Please report percent inhibition of viability for the following molecule: CC[C@]1(O)C[C@H]2CN(CCc3c([nH]c4ccccc34)[C@@](C(=O)OC)(c3cc4c(cc3OC)N(C=O)[C@H]3[C@@](O)(C(=O)OC)[C@H](OC(C)=O)[C@]5(CC)C=CCN6CC[C@]43[C@@H]65)C2)C1 [Vincristine] (max concentration tested 1000 nM)
59

In one line, give reported percent inhibition of viability of the entry Cc1cc(Nc2nc(N[C@@H](C)c3ncc(F)cn3)ncc2Cl)[nH]n1 [AZD1480] (max concentration tested 1000 nM) .
53.7

Please report percent inhibition of viability for the following molecule: NC(=O)Nc1cc(-c2cccc(F)c2)sc1C(=O)N[C@H]1CCCNC1 [AZD7762] (max concentration tested 1000 nM)
40.7

Report percent inhibition of viability for O=P1(NCCCl)OCCCN1CCCl (stereo unspecified) [Ifosfamide] (max concentration tested 10000 nM)
-2.89

Answer with reported percent inhibition of viability of Nc1nc(Nc2ccc3c(c2)CC[C@@H](N2CCCC2)CC3)nn1-c1cc2c(nn1)-c1ccccc1CCC2 [BGB324] (max concentration tested 10000 nM)
-1.93

Could you please provide reported percent inhibition of viability for NC1(c2ccc(-c3nc4ccn5c(=O)[nH]nc5c4cc3-c3ccccc3)cc2)CCC1 [MK-2206] (max concentration tested 1000 nM) ? Thanks!
28.5

Note percent inhibition of viability for the molecule shown: Cn1c(Nc2ccc(C(F)(F)F)cc2)nc2cc(Oc3ccnc(-c4ncc(C(F)(F)F)[nH]4)c3)ccc21 [RAF265] (max concentration tested 1000 nM)
12.1

Using known records, supply percent inhibition of viability for Cc1cccc(-c2nn3c(c2-c2ccnc4ccc(C(N)=O)cc24)CCC3)n1 [Galunisertib] (max concentration tested 1000 nM)
-4.21

Given the molecule O=C(CCCCCCNC(=O)c1cnc(N(c2ccccc2)c2ccccc2)nc1)NO [Rocilinostat] (max concentration tested 10000 nM) , write its reported percent inhibition of viability.
-2.48

###

system: YT (IL-2 2.5 ng/mL); test: percent inhibition of viability; higher = more inhibition; conditions: 72 h; 10 nM
Metric: percent inhibition of viability (%)
Please give a number only; it is taken to be in %.

Name the recorded percent inhibition of viability of the compound listed here: CC[C@]1(O)C[C@H]2CN(CCc3c([nH]c4ccccc34)[C@@](C(=O)OC)(c3cc4c(cc3OC)N(C=O)[C@H]3[C@@](O)(C(=O)OC)[C@H](OC(C)=O)[C@]5(CC)C=CCN6CC[C@]43[C@@H]65)C2)C1 [Vincristine] (max concentration tested 1000 nM)
97.3

Please indicate percent inhibition of viability recorded for CN(C)CCN1C(=O)c2cccc3cc(N)cc(c23)C1=O [Amonafide] (max concentration tested 10000 nM)
6.52

Quick one: give measured percent inhibition of viability for O=C1NC(=O)[C@@H](c2cn3c4c(cccc24)CCC3)[C@@H]1c1c[nH]c2ccccc12 [Tivantinib] (max concentration tested 1000 nM)
2.38

Read off the recorded percent inhibition of viability for COC(=O)N[C@@H](C)CNc1nccc(-c2cn(C(C)C)nc2-c2cc(Cl)cc(NS(C)(=O)=O)c2F)n1 [Encorafenib] (max concentration tested 1000 nM)
4.21

Respond only with percent inhibition of viability recorded for NC1(c2ccc(-c3nc4ccn5c(=O)[nH]nc5c4cc3-c3ccccc3)cc2)CCC1 [MK-2206] (max concentration tested 1000 nM)
5.71

###

I'd be grateful if you could share measured percent inhibition of viability for these entries.
test system: DERL-7 (IL-2 2.5 ng/mL); test: percent inhibition of viability; higher = more inhibition; conditions: 72 h; 1 nM
# unit: % | format: bare number

Please list percent inhibition of viability recorded for the compound CC[C@]1(O)C[C@H]2CN(CCc3c([nH]c4ccccc34)[C@@](C(=O)OC)(c3cc4c(cc3OC)N(C=O)[C@H]3[C@@](O)(C(=O)OC)[C@H](OC(C)=O)[C@]5(CC)C=CCN6CC[C@]43[C@@H]65)C2)C1 [Vincristine] (max concentration tested 1000 nM)
-3.31

Give the reported value of percent inhibition of viability for this record: Cn1c(Nc2ccc(C(F)(F)F)cc2)nc2cc(Oc3ccnc(-c4ncc(C(F)(F)F)[nH]4)c3)ccc21 [RAF265] (max concentration tested 1000 nM)
1.74

Query percent inhibition of viability for C[C@@H](C(=O)O)c1ccc(-c2ccccc2)c(F)c1 [Tarenflurbil] (max concentration tested 10000 nM)
4.46

Give me measured percent inhibition of viability, please, for this compound: COc1cc(OC)c(/C=C/S(=O)(=O)Cc2ccc(OC)c(NCC(=O)O)c2)c(OC)c1 [Rigosertib] (max concentration tested 10000 nM)
-3.53

Return percent inhibition of viability (reported value) for this compound: C[C@@H]1C[C@H]2[C@@H]3CCC4=CC(=O)C=C[C@]4(C)[C@@]3(F)[C@@H](O)C[C@]2(C)[C@@]1(O)C(=O)CO [Dexamethasone] (max concentration tested 10000 nM)
-2.49

###

test system: normal NK cells expanded with K562-aAPC; test: percent inhibition of viability; higher = more inhibition; settings: 72 h; IL-2 2.5 ng/mL; 1 nM
Metric: percent inhibition of viability (%)
Report only the number, with the unit % understood.

Tell me its percent inhibition of viability given O=C(O)CC[C@H]1CC[C@@](c2cc(F)ccc2F)(S(=O)(=O)c2ccc(Cl)cc2)CC1 [MK-0752] (max concentration tested 1000 nM) as the entry.
0.91

State its percent inhibition of viability for this compound: CC[C@H](C)C(=O)O[C@H]1C[C@@H](C)C=C2C=C[C@H](C)[C@H](CC[C@@H]3C[C@@H](O)CC(=O)O3)[C@H]21 [Lovastatin] (max concentration tested 10000 nM)
0.56

Entry CC(C)(C)NC(=O)[C@H]1CC[C@H]2[C@@H]3CC[C@H]4NC(=O)C=C[C@]4(C)[C@H]3CC[C@]12C [Finasteride] (max concentration tested 10000 nM) needs its percent inhibition of viability filled in; supply it.
-10.9

Entry O=C(CCCCCCNC(=O)c1cnc(N(c2ccccc2)c2ccccc2)nc1)NO [Rocilinostat] (max concentration tested 10000 nM) needs its percent inhibition of viability filled in; supply it.
-3.43

Provide one value: measured percent inhibition of viability of C=CCn1c(=O)c2cnc(Nc3ccc(N4CCN(C)CC4)cc3)nc2n1-c1cccc(C(C)(C)O)n1 [MK1775] (max concentration tested 10000 nM)
-4.38

Could you please provide reported percent inhibition of viability for O=C(CCCCCCC(=O)Nc1ccc([C@H]2O[C@@H](CSc3nc(-c4ccccc4)c(-c4ccccc4)o3)C[C@@H](c3ccc(CO)cc3)O2)cc1)NO [Tubacin] (max concentration tested 10000 nM) ? Thanks!
-0.3

Quote percent inhibition of viability reported for CC1(C)CCC(c2ccc(Cl)cc2)=C(CN2CCN(c3ccc(C(=O)NS(=O)(=O)c4ccc(N[C@H](CCN5CCOCC5)CSc5ccccc5)c(S(=O)(=O)C(F)(F)F)c4)cc3)CC2)C1 [Navitoclax] (max concentration tested 10000 nM) please.
-0.31

Specify reported percent inhibition of viability for the compound shown: CCn1c(C(=O)N(C2CC2)C2CC2)cc2c3c(ncn3C)c(Nc3cc(C)n(C)n3)nc21 (max concentration tested 10000 nM)
5.29

Report percent inhibition of viability, nothing else, for this compound: CC1(COc2ccc3c(c2)ncn3-c2ccc3cccc(N4CCC(N)CC4)c3n2)COC1 [Crenolanib] (max concentration tested 10000 nM)
-3.71

Tell me percent inhibition of viability reported for CCN(CC)CCNC(=O)c1c(C)[nH]c(/C=C2\C(=O)Nc3ccc(F)cc32)c1C [Sunitinib] (max concentration tested 1000 nM)
-8.6

Indicate its recorded percent inhibition of viability; the compound in question is CC(C)c1c(C(=O)Nc2ccccc2)c(-c2ccccc2)c(-c2ccc(F)cc2)n1CC[C@@H](O)C[C@@H](O)CC(=O)O [Atorvastatin] (max concentration tested 10000 nM)
-5.69
